assay info: qHTS for differential inhibitors of proliferation of Plasmodium falciparum line 7G8 (AID 1815);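 also: parasite growth measured after three days of incubation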; also: potency is read from the fitted curve at half-maximal effect
protocol conditions: Plasmodium falciparum 7G8 proliferation inhibition; series mostly up to 28.7 µM
Inconclusive results are not listed. The source made the active and inactive calls. Calls follow the shape of the dose curve; as a rule, active = well fitted curve in the direction sought with a large enough effect; inconclusive = small, poorly fitted or top-dose-only effect, or another doubt; inactive = no such curve, though single readings can be large or run the other way.

>  <molecule>
Cc1cn([C@H]2C=C[C@@H](CO)O2)c(=O)[nH]c1=O

>  <Potency>
inactive

$$$$
>  <molecule>
O=C(c1ccc(OCCN2CCCCC2)cc1)c1c(-c2ccc(O)cc2)sc2cc(O)ccc12

>  <Potency>
4.47 µM (active)

$$$$
>  <molecule>
CCOC(=O)c1ncn2c1CN(C)C(=O)c1cc(F)ccc1-2

>  <Potency>
inactive

$$$$
>  <molecule>
O=C(c1ccc(F)cc1)C1CCN(CCn2c(=O)[nH]c3ccccc3c2=O)CC1

>  <Potency>
3.16 µM (active)

$$$$
>  <molecule>
CN(C)c1nc(N(C)C)nc(N(C)C)n1

>  <Potency>
inactive

$$$$
>  <molecule>
NCCc1cnc[nH]1

>  <Potency>
inactive

$$$$
>  <molecule>
NC(=O)OCC(COC(N)=O)c1ccccc1

>  <Potency>
inactive

$$$$
>  <molecule>
CC(C)NCC(O)c1ccc(O)c(O)c1 (stereo not given)

>  <Potency>
inactive

$$$$
>  <molecule>
CC(CCc1ccc(O)cc1)NCCc1ccc(O)c(O)c1 (stereo not given)

>  <Potency>
12.6 µM (active)

$$$$
>  <molecule>
COc1nc(C)nc(Cl)c1NC1=NCCN1

>  <Potency>
inactive

$$$$
>  <molecule>
CN1CCC(=C2c3ccccc3CC(=O)c3sccc32)CC1

>  <Potency>
10 µM (active)

$$$$
>  <molecule>
CCOC(=O)Nc1ccc(NCc2ccc(F)cc2)nc1N

>  <Potency>
2.82 µM (active)

$$$$
>  <molecule>
NCCS(=O)(=O)O

>  <Potency>
inactive

$$$$
>  <molecule>
COc1cc2nc(N3CCN(C(=O)C4COc5ccccc5O4)CC3)nc(N)c2cc1OC (stereo not given)

>  <Potency>
2.24 µM (active)

$$$$
>  <molecule>
Nc1c2c(nc3ccccc13)CCCC2

>  <Potency>
10 µM (active)

$$$$

----------
target under test: RecQ-like DNA helicase BLM (Homo sapiens) (UniProt P54132)
Sequence (P54132 whole entry, looked up): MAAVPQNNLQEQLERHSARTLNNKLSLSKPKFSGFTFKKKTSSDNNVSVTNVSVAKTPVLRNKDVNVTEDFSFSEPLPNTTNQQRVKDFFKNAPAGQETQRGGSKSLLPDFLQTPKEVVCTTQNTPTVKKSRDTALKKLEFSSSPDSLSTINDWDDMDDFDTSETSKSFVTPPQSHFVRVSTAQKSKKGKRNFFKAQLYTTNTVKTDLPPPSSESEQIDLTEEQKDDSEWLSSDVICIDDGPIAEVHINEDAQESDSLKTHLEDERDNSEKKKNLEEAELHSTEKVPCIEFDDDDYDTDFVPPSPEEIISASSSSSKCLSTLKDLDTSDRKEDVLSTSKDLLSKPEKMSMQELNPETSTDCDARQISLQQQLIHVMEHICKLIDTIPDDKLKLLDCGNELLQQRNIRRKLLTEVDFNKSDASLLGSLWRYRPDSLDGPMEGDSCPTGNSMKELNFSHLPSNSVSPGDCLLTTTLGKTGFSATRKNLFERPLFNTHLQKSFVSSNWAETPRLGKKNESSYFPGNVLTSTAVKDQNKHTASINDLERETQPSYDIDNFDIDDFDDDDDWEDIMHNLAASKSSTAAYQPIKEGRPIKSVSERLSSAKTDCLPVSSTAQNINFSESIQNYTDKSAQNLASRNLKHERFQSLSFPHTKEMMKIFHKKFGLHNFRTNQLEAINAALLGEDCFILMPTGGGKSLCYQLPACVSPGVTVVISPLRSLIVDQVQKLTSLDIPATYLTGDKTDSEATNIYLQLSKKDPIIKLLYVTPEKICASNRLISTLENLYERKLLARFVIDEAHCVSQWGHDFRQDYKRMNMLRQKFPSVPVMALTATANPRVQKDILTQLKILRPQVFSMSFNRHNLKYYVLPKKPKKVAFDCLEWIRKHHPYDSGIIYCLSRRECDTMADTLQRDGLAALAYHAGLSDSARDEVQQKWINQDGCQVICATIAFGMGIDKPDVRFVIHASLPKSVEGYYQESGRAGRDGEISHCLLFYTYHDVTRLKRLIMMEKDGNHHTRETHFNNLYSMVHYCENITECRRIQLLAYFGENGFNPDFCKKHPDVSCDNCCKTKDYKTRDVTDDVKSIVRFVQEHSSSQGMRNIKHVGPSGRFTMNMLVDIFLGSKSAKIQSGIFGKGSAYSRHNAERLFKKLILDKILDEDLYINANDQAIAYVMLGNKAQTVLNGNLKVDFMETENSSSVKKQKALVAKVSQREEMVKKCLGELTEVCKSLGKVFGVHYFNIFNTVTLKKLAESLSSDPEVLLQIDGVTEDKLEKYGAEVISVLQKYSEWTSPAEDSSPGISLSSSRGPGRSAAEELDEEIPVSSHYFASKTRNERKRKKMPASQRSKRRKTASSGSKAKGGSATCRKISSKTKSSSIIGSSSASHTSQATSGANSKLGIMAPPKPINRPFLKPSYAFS
assay info: qHTS Validation Assay for Inhibitors of Bloom's syndrome helicase (BLM) (AID 2364)
protocol conditions: BLM helicase DNA unwinding, fluorescence, in vitro; series mostly up to 57.1 µM
Inconclusive results are not listed. The source made the active and inactive calls. Calls follow the shape of the dose curve; as a rule, active = well fitted inhibition curve with a large enough effect; inconclusive = small, poorly fitted or top-dose-only effect; inactive = no such curve, though single readings can be large or run the other way.
Outcome codes: y = active, n = inactive

>  <compound>
CC(C)C(=O)Nc1ccc([N+](=O)[O-])c(C(F)(F)F)c1

>  <qualitative label>
n

$$$$
>  <compound>
O=C1c2c(O)ccc(O)c2C(=O)c2c(NCCNCCO)ccc(NCCNCCO)c21

>  <qualitative label>
y

$$$$
>  <compound>
COc1ccc2c(c1)c(CC(=O)O)c(C)n2C(=O)c1ccc(Cl)cc1

>  <qualitative label>
n

$$$$
>  <compound>
NC(CO)C(=O)NNCc1ccc(O)c(O)c1O (configuration not stated)

>  <qualitative label>
n

$$$$
>  <compound>
Nc1c2c(nc3ccccc13)CCCC2

>  <qualitative label>
n

$$$$
>  <compound>
CN(C)CCCN1c2ccccc2CCc2ccc(Cl)cc21

>  <qualitative label>
n

$$$$
>  <compound>
CN(C)CCC=C1c2ccccc2C=Cc2ccccc21

>  <qualitative label>
n

$$$$
>  <compound>
CC(COc1ccccc1)N(CCCl)Cc1ccccc1 (configuration not stated)

>  <qualitative label>
n

$$$$
>  <compound>
CCOC(=O)Nc1ccc(NCc2ccc(F)cc2)nc1N

>  <qualitative label>
y

$$$$
>  <compound>
Clc1ccc2c(c1)C(N1CCNCC1)=Nc1ccccc1O2

>  <qualitative label>
n

$$$$
>  <compound>
Cn1cnc2c1c(=O)[nH]c(=O)n2C

>  <qualitative label>
n

$$$$
>  <compound>
CN1CCC(=C2c3ccccc3CC(=O)c3sccc32)CC1

>  <qualitative label>
n

$$$$

----------
assay info: Quantitative High-Throughput drug screen in 47 multiple myeloma cell lines against the NCATS MIPE library collection: KMM1_JCRB cell viability assay (AID 1918960); also: nearly all actives have a fitted effect of over 30% in size; also: potency is read from the fitted curve at half-maximal effect
protocol conditions: KMM1 myeloma viability, CellTiter-Glo ATP luminescence, 48 h; series mostly up to 45.8 µM
Inconclusive results are not listed. The source made the active and inactive calls. Calls follow the shape of the dose curve; as a rule, active = well fitted cell-killing curve with a large enough effect; inconclusive = small, poorly fitted or top-dose-only effect, or effect the other way; inactive = no such curve, though single readings can be large or run the other way.
assay endpoint: Potency

>  <compound>
NCCc1cnc[nH]1

>  <measurement>
inactive

$$$$
>  <compound>
O=C1N(c2ccccc2)c2ccccc2C1(Cc1ccncc1)Cc1ccncc1

>  <measurement>
inactive

$$$$
>  <compound>
CN1CCN(C2=Nc3cc(Cl)ccc3Nc3ccccc32)CC1

>  <measurement>
16.6 µM (active)

$$$$
>  <compound>
CN(C)c1nc(N(C)C)nc(N(C)C)n1

>  <measurement>
inactive

$$$$
>  <compound>
Clc1ccc2c(c1)C(N1CCNCC1)=Nc1ccccc1O2

>  <measurement>
inactive

$$$$
>  <compound>
CN(CCOc1ccc(NS(C)(=O)=O)cc1)CCc1ccc(NS(C)(=O)=O)cc1

>  <measurement>
inactive

$$$$
>  <compound>
OCCN1CCN(CCCN2c3ccccc3Sc3ccc(C(F)(F)F)cc32)CC1

>  <measurement>
20.9 µM (active)

$$$$
>  <compound>
Nc1c2c(nc3ccccc13)CCCC2

>  <measurement>
inactive

$$$$
>  <compound>
COc1cc2nc(N(C)CCCNC(=O)C3CCCO3)nc(N)c2cc1OC (stereo not drawn)

>  <measurement>
inactive

$$$$
>  <compound>
CCC1(C)CC(=O)NC1=O (stereo not drawn)

>  <measurement>
inactive

$$$$
>  <compound>
NC(=O)OCC(COC(N)=O)c1ccccc1

>  <measurement>
inactive

$$$$
>  <compound>
CCOC(=O)C(C)(C)Oc1ccc(Cl)cc1

>  <measurement>
inactive

$$$$
>  <compound>
Nc1ccn([C@H]2CC[C@@H](CO)O2)c(=O)n1

>  <measurement>
inactive

$$$$

----------
assay info: qHTS assay to identify small molecule inhibitors of chordoma cells - UCH-1 (AID 1259355); also: nearly all actives have a fitted effect of over 55% in size
protocol conditions: UCH-1 chordoma viability, CellTiter-Glo, 48 h, combination, with auranofin plus four topoisomerase inhibitors; series mostly up to 46.1 µM
Inconclusive results are not listed. Calls of active or inactive are those of the source. Calls come from the whole dose curve; as a rule, active = well fitted cell-killing curve with a large enough effect; inconclusive = small, poorly fitted or top-dose-only effect, or effect the other way; inactive = no such curve, though single readings can be large or run the other way.
Outcome codes: active, inactive

>  <compound>
NC(CO)C(=O)NNCc1ccc(O)c(O)c1O (centres undefined)

>  <qualitative label>
inactive

$$$$
>  <compound>
Cn1cnc2c1c(=O)[nH]c(=O)n2C

>  <qualitative label>
inactive

$$$$
>  <compound>
Cn1ccc2cc3c(cc21)CCN3C(=O)Nc1cccnc1

>  <qualitative label>
inactive

$$$$
>  <compound>
CC[N+](CC)(CC)CCOc1cccc(OCC[N+](CC)(CC)CC)c1OCC[N+](CC)(CC)CC

>  <qualitative label>
inactive

$$$$
>  <compound>
CN1CCN2c3ccccc3Cc3ccccc3C2C1 (centres undefined)

>  <qualitative label>
inactive

$$$$
>  <compound>
CN1CCC(=C2c3ccccc3CC(=O)c3sccc32)CC1

>  <qualitative label>
inactive

$$$$
>  <compound>
CN(C)c1nc(N(C)C)nc(N(C)C)n1

>  <qualitative label>
inactive

$$$$
>  <compound>
Clc1ccccc1C(c1ccccc1)(c1ccccc1)n1ccnc1

>  <qualitative label>
inactive

$$$$
>  <compound>
CC1(C)O[C@H]2CC(=O)OC[C@]23[C@H]2CC[C@@]4(C)[C@H](c5ccoc5)OC(=O)[C@H]5O[C@]54[C@]2(C)C(=O)C[C@@H]13

>  <qualitative label>
inactive

$$$$
>  <compound>
O=C1Cc2cc(CCN3CCN(c4nsc5ccccc45)CC3)c(Cl)cc2N1

>  <qualitative label>
inactive

$$$$
>  <compound>
CC(C)NCC(O)COc1ccc(CCOCC2CC2)cc1 (centres undefined)

>  <qualitative label>
inactive

$$$$
>  <compound>
Nc1nc2c(ncn2COC(CO)CO)c(=O)[nH]1

>  <qualitative label>
inactive

$$$$
>  <compound>
NCCS(=O)(=O)O

>  <qualitative label>
inactive

$$$$
>  <compound>
OCCN1CCN(CCCN2c3ccccc3Sc3ccc(C(F)(F)F)cc32)CC1

>  <qualitative label>
active

$$$$
>  <compound>
CCOC(=O)c1ncn2c1CN(C)C(=O)c1cc(F)ccc1-2

>  <qualitative label>
inactive

$$$$
>  <compound>
COc1nc(C)nc(Cl)c1NC1=NCCN1

>  <qualitative label>
inactive

$$$$
>  <compound>
CC(C)C(=O)Nc1ccc([N+](=O)[O-])c(C(F)(F)F)c1

>  <qualitative label>
inactive

$$$$
>  <compound>
N[C@@H](Cc1c[nH]c2ccc(O)cc12)C(=O)O

>  <qualitative label>
inactive

$$$$
>  <compound>
O=C1N(c2ccccc2)c2ccccc2C1(Cc1ccncc1)Cc1ccncc1

>  <qualitative label>
inactive

$$$$
>  <compound>
Cc1cnc(C(=O)NCCc2ccc(S(=O)(=O)NC(=O)NC3CCCCC3)cc2)cn1

>  <qualitative label>
inactive

$$$$
>  <compound>
CC(COc1ccccc1)N(CCCl)Cc1ccccc1 (centres undefined)

>  <qualitative label>
inactive

$$$$
>  <compound>
COc1ccccc1OCCNCC(O)COc1cccc2[nH]c3ccccc3c12 (centres undefined)

>  <qualitative label>
inactive

$$$$
>  <compound>
NCCc1cnc[nH]1

>  <qualitative label>
inactive

$$$$
>  <compound>
O=C(c1ccc(OCCN2CCCCC2)cc1)c1c(-c2ccc(O)cc2)sc2cc(O)ccc12

>  <qualitative label>
inactive

$$$$
>  <compound>
O=C(C1CCCCC1)N1CC(=O)N2CCc3ccccc3C2C1 (centres undefined)

>  <qualitative label>
inactive

$$$$
>  <compound>
C[C@@H]1CC(=O)NN=C1c1ccc(NN=C(C#N)C#N)cc1

>  <qualitative label>
inactive

$$$$
>  <compound>
COc1ccccc1OCC(O)CN1CCN(CC(=O)Nc2c(C)cccc2C)CC1 (centres undefined)

>  <qualitative label>
inactive

$$$$
>  <compound>
Cc1cn([C@H]2C=C[C@@H](CO)O2)c(=O)[nH]c1=O

>  <qualitative label>
inactive

$$$$
>  <compound>
O=c1c(-c2ccc(O)cc2)coc2cc(O)cc(O)c12

>  <qualitative label>
inactive

$$$$
>  <compound>
CS(=O)(=O)CCNCc1ccc(-c2ccc3ncnc(Nc4ccc(OCc5cccc(F)c5)c(Cl)c4)c3c2)o1

>  <qualitative label>
inactive

$$$$
>  <compound>
COc1cc2nc(N3CCN(C(=O)C4COc5ccccc5O4)CC3)nc(N)c2cc1OC (centres undefined)

>  <qualitative label>
inactive

$$$$
>  <compound>
CC(C(=O)O)c1cccc(C(=O)c2ccccc2)c1 (centres undefined)

>  <qualitative label>
inactive

$$$$
>  <compound>
Cn1c(=O)c2[nH]cnc2n(C)c1=O

>  <qualitative label>
inactive

$$$$
>  <compound>
CN1C(C(=O)Nc2ccccn2)=C(O)c2ccccc2S1(=O)=O

>  <qualitative label>
inactive

$$$$
>  <compound>
O=c1c(O)c(-c2ccc(O)c(O)c2)oc2cc(O)cc(O)c12

>  <qualitative label>
inactive

$$$$
>  <compound>
CCOC(=O)Nc1ccc(NCc2ccc(F)cc2)nc1N

>  <qualitative label>
inactive

$$$$
>  <compound>
Nc1nnc(-c2cccc(Cl)c2Cl)c(N)n1

>  <qualitative label>
inactive

$$$$
>  <compound>
CC1(CN2CCC(n3c(=O)[nH]c4ccccc43)CC2)OCc2ccccc2-n2cccc21 (centres undefined)

>  <qualitative label>
inactive

$$$$
>  <compound>
Nc1c2c(nc3ccccc13)CCCC2

>  <qualitative label>
inactive

$$$$
